Taken from paper PMC10934121.

Listed below: Tmax values for each entry.
# measurement protocol: in vivo
# Assay type: in vivo, C57BL/6J mice
# settings: C57BL/6JRj, mouse, in vivo, po, 350 mg/kg
Kindly answer with a numeric value in min, unit omitted.

- compound: "O=C1Nc2ccccc2C1=O [Isatin, 3-hydroxy-2H-indol-2-one]"
  unit of measurement: "min"
  Tmax: 30

Now for the compound whose Tmax we want.
-- ask Could you share which Tmax value was measured for O=C1Cc2ccccc2N1 [Indolin-2-one, 1,3-dihydro-2H-indol-2-one] ?
-- reply 30
